- protocolText: A CellTox Green Cytotoxicity Assay to monitor cytotoxicity in HEK293 cells - 40 hour (AID 1224871); further: nearly all actives have a fitted effect of over 45% in size
- conditionContext: CellTox Green fluorescence; series mostly up to 35.3 µM
Inconclusive results are not listed. Active and inactive are the calls of the source. The call rests on the fitted dose curve; in most records, active means well fitted activation curve with a large enough effect in the repeat runs; inconclusive means weak or mixed curves; inactive means flat fitted curve, though single readings scatter.
Classes used: active, inactive

                                    molecule  discretelabel
 0              NC(=O)c1ccc([N+](=O)[O-])cc1       inactive
 1  CC(C[N+](C)(C)C)OC(N)=O (stereo unspecified)       inactive
 2                        OCCOc1ccc(OCCO)cc1       inactive
 3       CC(C)(C)c1nnc(NS(=O)(=O)c2ccccc2)s1       inactive
 4  COc1ccc(CCN(C)CCCC(C#N)(c2cc(OC)c(OC)c(OC)c2)C(C)C)cc1OC (stereo unspecified)       inactive
 5                          CCCCCOC(=O)CCCCC       inactive
 6     Nc1ccc(S(=O)(=O)Nc2ccnn2-c2ccccc2)cc1       inactive
 7                       CCOC(=O)c1ccc(C)cc1       inactive
 8                         CCCCCCCCCCCCCCCCC       inactive
 9                          CCOC(=O)CCC(C)=O       inactive
10                    CC(C)(C)c1ccc(O)c(O)c1         active
11                          CC/C=C\CCOC(C)=O       inactive
12          Cc1cnc(NS(=O)(=O)c2ccc(N)cc2)nc1       inactive
13  O=C(O)Cc1ccc(CCNS(=O)(=O)c2ccc(Cl)cc2)cc1       inactive
14                  C=C(C)C(=O)OCCCCCCCC(C)C       inactive
15     CC(=O)OCC(CCn1cnc2cnc(N)nc21)COC(C)=O       inactive
16                         CCc1ccc(O)c(OC)c1       inactive
17                                 COC(=O)NN       inactive
18  CC(=O)N(CC(O)CO)c1c(I)c(C(=O)NCCO)c(I)c(C(=O)NCC(O)CO)c1I (stereo unspecified)       inactive
19  COc1c(N2C[C@@H]3CCCN[C@@H]3C2)c(F)cc2c(=O)c(C(=O)O)cn(C3CC3)c12       inactive
20         CCOC(=O)Nc1ccc(NCc2ccc(F)cc2)nc1N       inactive
